Test system: P. falciparum 3D7 growth, pLDH absorbance
Test Protocol: blood-stage malaria parasite growth potency – strain 3D7, dose response (AID 2305)
Recorded Metric: pIC50
The quantity pIC50 is defined as the negative base-10 logarithm of the molar concentration.

1) Cc1nc(Nc2ccc(F)cc2)nc(N2CCc3ccccc3C2C)c1CO (stereo not drawn)    6.13

Asked: Item under review: `COc1ccc(Nc2cc(C)nc(Nc3ccc(NC(C)=O)cc3)n2)cc1` . Reported pIC50?
Given back: 6.07

Asked: Param item: Cc1nn(-c2cccc(Cl)c2)c2c1C(C(=O)c1ccc3c(c1)OCO3)CC(=O)N2 (stereo not drawn)
Given back: 6.43

Asked: Ok, now `O=C(Nc1ccc2c(c1)CNCC2)c1ccc(-c2ccc(Cl)cc2)cc1`
Given back: 6.18

Asked: Next compound up: `CC(C)c1sc(N2CCN(C)CC2)nc1C(=O)NCCc1cccc(Cl)c1`
Given back: 5.83

----------
Tested on: P. falciparum 3D7 growth, pLDH absorbance
Test Protocol: blood-stage malaria parasite growth potency – strain 3D7, dose response (AID 2305)
Recorded pIC50 values for a group of molecules are listed next.
Reminder that pIC50 means the negative base-10 logarithm of the concentration expressed in mol/L.

// worked examples, pIC50 included
1) COC(=O)c1ccc(CC(C)NCC(O)c2cccc(C(F)(F)F)c2)c(OC)c1 (stereo not drawn)    6.10
2) CCNc1cc(C(=O)N[C@@H](Cc2ccccc2Cl)[C@H](O)CNC2CCCCC2)cc(N2CCCCS2(=O)=O)c1    6.10
3) O=C(/C=C/c1ccc(Cl)c(Cl)c1)N1CCC(CN2CC[C@H](c3c[nH]c4ccccc34)[C@@H](O)C2)CC1    6.09
4) Cc1cc(F)ccc1[C@H]1CNCCN1C(=O)N(C)C(C)(C)c1cc(C(F)(F)F)cc(C(F)(F)F)c1    6.23
5) Cc1cc(O)cc2c(C3CCN(CC4CCN(C(=O)/C=C/c5ccc(Cl)c(Cl)c5)CC4)CC3)c[nH]c12    5.96

Asked: May I ask what pIC50 has been recorded for `CS(=O)(=O)N(c1ccccc1)c1cc(C(=O)N[C@@H](Cc2ccccc2)[C@H](O)CNC2CCCCC2)cc(N2CCCC2=O)c1` ?
Given back: 7.10

Asked: And then `CCOC(=O)CNC(=O)c1cc(=O)c2ccccc2o1` , what is it?
Given back: 6.68

----------
Test system: P. falciparum 3D7 growth, pLDH absorbance
Test Protocol: blood-stage malaria parasite growth potency – strain 3D7, dose response (AID 2305)
Catalogue of molecules with associated pIC50
pIC50 field: float, defined as -log10 of concentration (mol/L).

Answered cases to consult:
1) O=C(Nc1ccc2c(c1)CCN(C1CCC1)CC2)c1ccc(-n2ccnc2)cn1    6.43
2) COc1cccc(CNC(=O)NC2CCN(c3ccnc(Nc4cc(OC)c(OC)c(OC)c4)n3)C2)c1 (stereo not given)    6.15
3) CCCNCc1ccc(-c2ccc(CN(CCOC)C(=O)CC3CCCC3=O)cc2)nc1 (stereo not given)    5.91
4) C=CCOc1ccc2ccccc2c1CNCCCCCCNCc1c(OCC=C)ccc2ccccc12    6.07

Switching to the query record.
Asked: Param item = `CCCN(CC1CC1)c1ncc(-c2ccccc2CNCc2ccccc2O)cn1` ; retrieve measured pIC50.
Given back: 6.30

----------
System: P. falciparum 3D7 growth, pLDH absorbance
Test Protocol: blood-stage malaria parasite growth potency – strain 3D7, dose response (AID 2305)
Exam item: assign 1 to entries whose IC50 is below 800 nM and 0 to entries at or above 800 nM. Note that a value of exactly 800 nM receives 0.

Examples with answers:
1) C=CCOC(=O)N1CCC(CNCc2ccc(-c3ccc(-c4nc5ccccc5[nH]4)s3)cc2)C1 (centres undefined)    1
2) O=c1ccc2ncc(Cl)c3c2n1CC3CN1CCC(NCc2cc3c(cn2)OCCO3)CC1 (centres undefined)    0
3) COc1cccc(C(=O)C2CC2CN2CC=C(c3c[nH]c4ccc(OC)nc34)CC2)c1 (centres undefined)    1
4) Oc1ccc2[nH]c(-c3cccc(F)c3)nc2c1CNCc1ccccc1    0
5) N#CCCN1CCN(Cc2cccc(-c3ccc(-c4nc5ccccc5[nH]4)s3)c2)CC1    1
6) O=C(Nc1cccc(CN2CCCN(Cc3ccc4c(c3)OCO4)CC2)c1)c1ccc2ccccc2c1    0
7) CCN(CC)S(=O)(=O)c1ccc(CCOCCCCCNCC(O)c2cc(Cl)c(N)c(Cl)c2)s1 (centres undefined)    0
8) Cc1cc(N2CCNCC2)c2cc(NC(=O)Nc3ccc(Cl)c(Cl)c3)ccc2n1    1

Asked: Lab note: confirm whether the reported IC50 for this compound is below 800 nM, equality not counting. compound: `NS(=O)(=O)c1ccc(Nc2nccc(-c3c(-c4cccc(NC(=O)c5c(F)cccc5F)c4)nn4ccccc34)n2)cc1`
Given back: 1

Asked: Request: `COc1ccc2nccc([C@@H](O)CN3CCC(NS(=O)(=O)c4cc(Br)c(Br)s4)CC3)c2c1`
Given back: 0

Asked: Similarly, `CN(C)c1cc2c(Nc3ccc4nc(Cc5ccccc5)[nH]c4c3)ncnc2cn1` ?
Given back: 0

----------
System: P. falciparum 3D7 growth, pLDH absorbance
Test Protocol: blood-stage malaria parasite growth potency – strain 3D7, dose response (AID 2305)
# label = Y if IC50 < 600 nM else N

1) CCOc1ccc(-c2nonc2NC(=O)c2ccccc2)cc1OCC    Y
2) CN1CCc2ccc(NC(=O)Nc3cccc(C(=O)c4ccccc4)c3)cc2C1    N
3) Cc1ccc2c(c1)NC[C@@]21CCN(C[C@@H](O)C2CCN(c3ccnc(Cl)c3)CC2)C[C@@H]1C    N
4) Cc1ccc(C)c2c1[nH]c1ccc(C3=NCCN3)cc12    Y
5) Cc1cc(NCCC(=O)NCCOc2ccccc2)nc(NCCc2ccc(F)cc2)n1    N
6) Cc1ccc(NC(=O)c2ccc3ncccc3c2)cc1OC1CCN(CCC(C)C)C1 (stereo unspecified)    Y

Asked: Consider NC1CCN(CCNCc2cccc(-c3ccc(-c4nc5ccc(F)cc5[nH]4)cc3)c2)C1 (stereo unspecified) . Does its IC50 lie strictly below 600 nM?
Given back: N

Asked: Cool, now CC(Cc1ccc(NC(=O)c2ccc(CC(C)NCc3ccc(Cl)c(Cl)c3)cc2)cc1)NCCc1cccc(Cl)c1 (stereo unspecified)
Given back: N

Asked: Note, next up: `CCN(CC)CCN(CCCc1ccc(-c2ccc(C(F)(F)F)cc2)cc1)C(=O)Cn1c(CCc2cccc(F)c2F)nc(=O)c2ccccc21`
Given back: N

Asked: What about `N=C1C=C(N)C(=O)c2ccccc21` ?
Given back: N

Asked: What about `COc1cc(Cc2cnc(N)nc2N)ccc1OCc1ccc(F)c(F)c1` ?
Given back: N

----------
System: P. falciparum 3D7 growth, pLDH absorbance
Test Protocol: blood-stage malaria parasite growth potency – strain 3D7, dose response (AID 2305)
Recorded Metric: IC50 (nM)
Write the number in nM without appending the unit.

1. O=C(N[C@@H](CC1CCCCC1)C(=O)NC1CCCc2ccccc21)c1ccc(O)c(-c2cccc(C(F)(F)F)c2)c1 (some centres undefined)    600

Asked: For the record `CN1CCC(C(=O)N(Cc2ccc(-c3ccc(CNCCc4ccccc4)cn3)cc2)C2Cc3ccccc3C2)CC1` , what value of IC50 is listed for P. falciparum 3D7 growth, pLDH absorbance?
Given back: 1060

Asked: Cool, now CN(C)CC(=O)NCC(NCCCNc1cc(=O)c2ccccc2[nH]1)c1cc(Br)cc(Br)c1 (centres undefined)
Given back: 1050

Asked: // query: `CC(C)(CNCc1ccc(OC(F)(F)F)cc1)c1nc(-c2ccc(Cl)c(O)c2)c(-c2ccncc2)[nH]1`
Given back: 550

----------
Test system: P. falciparum 3D7 growth, pLDH absorbance
Test Protocol: blood-stage malaria parasite growth potency – strain 3D7, dose response (AID 2305)
Recorded Metric: pIC50
// field semantics: pIC50 = negative decimal log of concentration (mol/L)

1) CS(=O)(=O)Nc1cccc(-c2cnc3[nH]cc(-c4ccc(C(=O)O)cc4)c3c2)c1    6.07
2) N=C(N)c1ccc(-c2cc3ccc(C(=N)N)cc3[nH]2)cc1    7.22
3) O=C(N[C@@H]1C[C@H]1c1ccccc1)N(CCCn1ccnc1)Cc1csc(-c2ccc(CNCc3ccccc3)cc2)n1    6.07
4) CCc1nc(N)nc(N)c1-c1ccc(C(C)C)cc1    6.08

# context switch: different compound, same pIC50
Asked: // returns reported pIC50 for input `Cc1cnc(NCCc2ccc(F)cc2)nc1N[C@@H](CC(C)C)C(=O)Nc1ccccc1`
Given back: 6.01

----------
Recorded measurements of log10 of IC50, one per entry
Tested on: P. falciparum 3D7 growth, pLDH absorbance
Test Protocol: blood-stage malaria parasite growth potency – strain 3D7, dose response (AID 2305)
Log scale reminder: IC50 in nM, then log10 taken.

Asked: Dear colleague, I am looking for the recorded log10 of IC50 of the following compound: `COc1cc(-c2nc(-c3ccc4c(c3)CCC4=NO)c(-c3ccncc3)[nH]2)ccc1OCCN1CCCCC1`
Given back: 2.90

Asked: Another compound: `O=C(Nc1ccc2c(c1)CCCN2S(=O)(=O)c1cccs1)c1cc([N+](=O)[O-])ccc1Cl`
Given back: 2.92
